assay: Solubility in water under physiological conditions; details: sodium phosphate buffer, pH 7.4, aqueous buffer, Solubility in water under physiological conditions, hydrochloride form, pH 7.40, 25° C.
Parameter: solubility. Scope: all listed entries.
Value expressed in mM; do not type the unit.

• OCCNC[C@H]1O[C@@H]2O[C@H]3[C@H](O)[C@@H](O)[C@@H](O[C@H]4[C@H](O)[C@@H](O)[C@@H](O[C@H]5[C@H](O)[C@@H](O)[C@@H](O[C@H]6[C@H](O)[C@@H](O)[C@@H](O[C@H]7[C@H](O)[C@@H](O)[C@@H](O[C@H]8[C@H](O)[C@@H](O)[C@@H](O[C@H]1[C@H](O)[C@H]2O)O[C@@H]8CNCCO)O[C@@H]7CNCCO)O[C@@H]6CNCCO)O[C@@H]5CNCCO)O[C@@H]4CNCCO)O[C@@H]3CNCCO = 350

Turning now to a further compound:
The compound identified as OCCNC[C@H]1O[C@@H]2O[C@H]3[C@H](O)[C@@H](O)[C@@H](O[C@H]4[C@H](O)[C@@H](O)[C@@H](O[C@H]5[C@H](O)[C@@H](O)[C@@H](O[C@H]6[C@H](O)[C@@H](O)[C@@H](O[C@H]7[C@H](O)[C@@H](O)[C@@H](O[C@H]8[C@H](O)[C@@H](O)[C@@H](O[C@H]1[C@H](O)[C@H]2O)O[C@@H]8CO)O[C@@H]7CO)O[C@@H]6CO)O[C@@H]5CO)O[C@@H]4CO)O[C@@H]3CO registered its solubility at 95

###

assay: Solubility in water under physiological conditions; conditions: sodium phosphate buffer, pH 7.4, aqueous buffer
observable: solubility (mM)
Value expressed in mM; do not type the unit.

The compound identified as NCCNC[C@H]1O[C@@H]2O[C@H]3[C@H](O)[C@@H](O)[C@@H](O[C@H]4[C@H](O)[C@@H](O)[C@@H](O[C@H]5[C@H](O)[C@@H](O)[C@@H](O[C@H]6[C@H](O)[C@@H](O)[C@@H](O[C@H]7[C@H](O)[C@@H](O)[C@@H](O[C@H]8[C@H](O)[C@@H](O)[C@@H](O[C@H]1[C@H](O)[C@H]2O)O[C@@H]8CO)O[C@@H]7CO)O[C@@H]6CO)O[C@@H]5CO)O[C@@H]4CO)O[C@@H]3CO [reference compound] registered its solubility at 70

###

assay: Solubility in water under physiological conditions; conditions: sodium phosphate buffer, pH 7.4, aqueous buffer, Solubility in water under physiological conditions, free base form, pH 7.40, 25° C.
observable: solubility (mM)
Value expressed in mM; do not type the unit.

• OCCNC[C@H]1O[C@@H]2O[C@H]3[C@H](O)[C@@H](O)[C@@H](O[C@H]4[C@H](O)[C@@H](O)[C@@H](O[C@H]5[C@H](O)[C@@H](O)[C@@H](O[C@H]6[C@H](O)[C@@H](O)[C@@H](O[C@H]7[C@H](O)[C@@H](O)[C@@H](O[C@H]8[C@H](O)[C@@H](O)[C@@H](O[C@H]1[C@H](O)[C@H]2O)O[C@@H]8CO)O[C@@H]7CO)O[C@@H]6CO)O[C@@H]5CO)O[C@@H]4CO)O[C@@H]3CO [Example 1] = 40

Turning now to a further compound:
The compound identified as OCCNC[C@H]1O[C@@H]2O[C@H]3[C@H](O)[C@@H](O)[C@@H](O[C@H]4[C@H](O)[C@@H](O)[C@@H](O[C@H]5[C@H](O)[C@@H](O)[C@@H](O[C@H]6[C@H](O)[C@@H](O)[C@@H](O[C@H]7[C@H](O)[C@@H](O)[C@@H](O[C@H]8[C@H](O)[C@@H](O)[C@@H](O[C@H]1[C@H](O)[C@H]2O)O[C@@H]8CNCCO)O[C@@H]7CNCCO)O[C@@H]6CNCCO)O[C@@H]5CNCCO)O[C@@H]4CNCCO)O[C@@H]3CNCCO [Example 2] registered its solubility at 140
